protocol-notes: MMV: MTT Cytotoxicity Assay Day 3 pi, U87-CD4-CXCR4 cells, % cell death @ 5mM compound
Format: toxicity, cell-based
measurement-setup: human, u87-cd4-cxcr4, 5000 µM
Label rule, in plain words: % Cell Death of 40 and up is Condition met, under 40 is Condition not met.

Illustrative cases are given below, each with its answer.
| compound | group-label |
| --- | --- |
| COc1ccc(CN2CCN(Cc3ccccc3)CC2)c(O)c1 | Condition not met |
| COc1ccc(CCN2C(=O)c3[nH]nc(-c4cc(Cl)c(C)cc4O)c3C2c2ccccc2F)cc1 (stereo not given) | Condition not met |
| CCc1ccc(Nc2cc(C)c3ccc(O)cc3n2)cc1.Cl | Condition met |
| COc1ccc(Nc2nc(N/N=C/c3ccc(O)cc3)nc(Nc3ccc([N+](=O)[O-])cc3)n2)cc1 | Condition not met |
| COc1cc(-c2nc(-c3ccccc3)c(-c3ccccc3)[nH]2)cc(OC)c1O | Condition met |
| Br.CCn1c2c(c(=N)c3c1CCC3)CCCC2 | Condition not met |
| O=c1nc(C=Cc2ccc(Cl)cc2)oc2ccccc12 | Condition not met |
| Cc1ccc(C)c(Cn2c(N3CCC(C(=O)NCc4cccs4)CC3)nc3ccccc32)c1 | Condition not met |

Check if % Cell Death >= 40 (inclusive). Item: CCOC(=O)C1CCN(C(=O)CN2C(=O)c3ccccc3C2c2c[nH]c3ccccc23)CC1 (stereo not given)
Condition not met

Kindly determine if % Cell Death recorded for `COc1cccc(C=Cc2nc(=O)c3ccccc3o2)c1OC` is above or exactly 40.
Condition met
